Tested on: SARS-CoV-2
test protocol: Antiviral activity against SARS-CoV-2 variant Omicron BA.3 infected in African green monkey Vero E6 cells assessed as reduction in virus titers of progeny virus in supernatant measured after 72 hrs by CPE assay
Format: functional, organism-based
study conditions: Severe acute respiratory syndrome coronavirus 2, Omicron BA.3, Vero C1008, 72 h
pIC50: −log10 of the molar value.
endpoint: pIC50

[[record]]
structure = "C=C(C)[C@@H]1CCC(C)=C[C@H]1c1c(O)cc(CCCCC)c(C(=O)OC)c1O"
study_system = "SARS-CoV-2"
endpoint = "pIC50"
numeric_result = 4.73

[[record]]
structure = "C=C(C)[C@@H]1CCC(C)=C[C@H]1c1c(O)cc(CCCCC)c(C(=O)O)c1O"
study_system = "SARS-CoV-2"
endpoint = "pIC50"
numeric_result = 4.50

